# Assay protocol: Single ascending dose (SAD) study in healthy male volunteers: pharmacokinetics
# Type: in vivo, human
# Test parameters: male, human, plasma, oral, 6 mg, 6 mg (N = 6), mean; read-out: AUC(0-24)

{"Compound": "Cc1ccc(C(=O)NNC(=O)c2c(C)cccc2Cl)cc1C#Cc1cnc2ccccc2c1 [compound of Formula I]", "Unit abbreviation": "ng·h/mL", "AUC(0-t)": 1140}

---

# Assay protocol: Pharmacokinetics in CML patients by dose cohort
# Test parameters: human, plasma, po, 174 mg

{"Compound": "Cc1ccc(C(=O)NNC(=O)c2c(C)cccc2Cl)cc1C#Cc1cnc2ccccc2c1 [compound of Formula I]", "Cmax": "4210 ng/mL"}

These entries and their values trace back to patent US20260069584A1.
